Assign Competition Factor KF for Receptor Bonding to each entry below.
tested.system: calcitriol receptor (Sus scrofa, UniProt A3RGC1)
Sequence (A3RGC1 1-427): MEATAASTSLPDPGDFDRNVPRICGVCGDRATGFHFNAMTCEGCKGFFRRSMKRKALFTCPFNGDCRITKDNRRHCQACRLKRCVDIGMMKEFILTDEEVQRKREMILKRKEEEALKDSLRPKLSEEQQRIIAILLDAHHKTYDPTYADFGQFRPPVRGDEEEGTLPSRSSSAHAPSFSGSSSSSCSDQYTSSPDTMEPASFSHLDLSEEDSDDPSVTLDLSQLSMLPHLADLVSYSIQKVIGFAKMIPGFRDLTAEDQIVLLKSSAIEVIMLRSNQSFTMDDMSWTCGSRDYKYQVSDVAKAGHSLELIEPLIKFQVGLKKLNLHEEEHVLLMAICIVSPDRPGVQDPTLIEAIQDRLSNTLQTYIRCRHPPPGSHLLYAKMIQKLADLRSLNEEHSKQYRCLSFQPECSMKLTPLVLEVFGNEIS
assay.method.text: calcitriol-receptor test (competition with 3H-calcitriol)
applied.conditions: quotient of concentrations of test substance and calcitriol for 50% competition, receptor protein from intestines of juvenile pigs
Numbers only.

INSERT INTO measurements (compound, tested_system, value_reported) VALUES
  ('C=C1/C(=C\C=C2/CCC[C@]3(C)[C@@H](C(C)(C)/C=C/[C@H](O)C4(C(=O)CCCCCCC)CC4)CC[C@@H]23)C[C@@H](O)C[C@@H]1O [Compound 43a]', 'calcitriol receptor (Sus scrofa, UniProt A3RGC1)', 48),
  ('C=C1/C(=C\C=C2/CCC[C@]3(C)[C@@H]([C@H](C)/C=C/[C@@H](O)C4(C(=O)c5ccccc5)CC4)CC[C@@H]23)C[C@@H](O)C[C@@H]1O [Compound 10b]', 'calcitriol receptor (Sus scrofa, UniProt A3RGC1)', 2),
  ('CCCCCC(=O)C1([C@H](O)/C=C/[C@@H](C)[C@H]2CC[C@H]3/C(=C/C=C4C[C@@H](O)C[C@H](O)C4)CCC[C@]23C)CC1 [Compound 61b]', 'calcitriol receptor (Sus scrofa, UniProt A3RGC1)', 3),
  ('C=C1C(=CC=C2CCCC3(C)C2CCC3C(C)(C)C=CC(O)C2(C(=O)CCC)CC2)CC(O)CC1O (stereo not drawn) [Compound 35b]', 'calcitriol receptor (Sus scrofa, UniProt A3RGC1)', 2),
  ('C=C1/C(=C\C=C2/CCC[C@]3(C)[C@@H]([C@H](C)/C=C/[C@@H](O)C4(C(=O)/C=C/CCC)CC4)CC[C@@H]23)C[C@@H](O)C[C@@H]1O [Compound 18b]', 'calcitriol receptor (Sus scrofa, UniProt A3RGC1)', 2);

Required: Competition Factor KF for Receptor Bonding, one value per compound below.
1. C=C1/C(=C\C=C2/CCC[C@]3(C)[C@@H]([C@H](C)/C=C/[C@@H](O)C4(/C=C/C(=O)OC(C)(C)C)CC4)CC[C@@H]23)C[C@@H](O)C[C@@H]1O [Compound 26b]
2. C=C1/C(=C\C=C2/CCC[C@]3(C)[C@@H]([C@H](C)/C=C/[C@@H](O)C4(C(=O)CCCCC)CC4)CC[C@@H]23)C[C@@H](O)C[C@@H]1O
3. C=C1/C(=C\C=C2/CCC[C@]3(C)[C@@H]([C@H](C)/C=C/[C@@H](O)C4(C(=O)C#CCCC)CC4)CC[C@@H]23)C[C@@H](O)C[C@@H]1O [Compound 19b]
4. C=C1/C(=C\C=C2/CCC[C@]3(C)[C@@H]([C@H](C)/C=C/[C@@H](O)C4(/C=C/C(=O)OCC)CC4)CC[C@@H]23)C[C@@H](O)C[C@@H]1O [Compound 24b]
5. CC(=O)C1(C(O)C=CC(C)(C)C2CCC3C(=CC=C4CC(O)CC(O)C4)CCCC32C)CC1 (stereo not drawn) [Compound 81b]
6. C=C1C(=CC=C2CCCC3(C)C2CCC3C(C)C=CC(O)C2(C(=O)C3CC3)CC2)CC(O)CC1O (stereo not drawn) [Compound 12b]
7. C=C1/C(=C\C=C2/CCC[C@]3(C)[C@@H](C(C)(C)/C=C/[C@@H](O)C4(C(=O)CCCCCCC)CC4)CC[C@@H]23)C[C@@H](O)C[C@@H]1O [Compound 43b]

Result:
1. 4
2. 3
3. 2
4. 4
5. 3
6. 2
7. 33

Required: Competition Factor KF for Receptor Bonding, one value per compound below.
1. CCCCCCC(=O)C1([C@@H](O)/C=C/[C@@H](C)[C@H]2CC[C@H]3/C(=C/C=C4C[C@@H](O)C[C@H](O)C4)CCC[C@]23C)CC1 [Compound 64a]
2. CCCCC(=O)C1([C@H](O)/C=C/[C@@H](C)[C@H]2CC[C@H]3/C(=C/C=C4C[C@@H](O)C[C@H](O)C4)CCC[C@]23C)CC1 [Compound 58b]
3. CC(=O)C1(C(O)C=CC(C)C2CCC3C(=CC=C4CC(O)CC(O)C4)CCCC32C)CC1 (stereo not drawn) [Compound 55b]
4. C=C1C(=CC=C2CCCC3(C)C2CCC3C(C)(C)C=CC(O)C2(C(C)=O)CC2)CC(O)CC1O (stereo not drawn) [Compound 33b]
5. C=C1C(=CC=C2CCCC3(C)C2CCC3C(C)(C)C=CC(O)C2(C(C)=O)CC2)CC(O)CC1O (stereo not drawn) [Compound 33a]

Result:
1. 3.5
2. 3
3. 4.5
4. 4
5. 4

Required: Competition Factor KF for Receptor Bonding, one value per compound below.
1. C=C1C(=CC=C2CCCC3(C)C2CCC3C(C)(C)C=CC(O)C2(C(=O)CCC)CC2)CC(O)CC1O (stereo not drawn) [Compound 35a]
2. C=C1/C(=C\C=C2/CCC[C@]3(C)[C@@H]([C@H](C)/C=C/[C@@H](O)C4(C(=O)CCCC)CC4)CC[C@@H]23)C[C@@H](O)C[C@@H]1O
3. C=C1/C(=C\C=C2/CCC[C@]3(C)[C@@H]([C@H](C)/C=C/[C@@H](O)C4(C(=O)C(C)(C)C)CC4)CC[C@@H]23)C[C@@H](O)C[C@@H]1O [Compound 15b]
4. CC(=O)C1(C(O)C=CC(C)(C)C2CCC3C(=CC=C4CC(O)CC(O)C4)CCCC32C)CC1 (stereo not drawn) [Compound 81a]
5. C=C1C(=CC=C2CCCC3(C)C2CCC3C(C)C=CC(O)C2(C(C)=O)CC2)CC(O)CC1O (stereo not drawn)
6. CCCCCC(=O)C1([C@H](O)/C=C/C(C)(C)[C@H]2CC[C@H]3/C(=C/C=C4C[C@@H](O)C[C@H](O)C4)CCC[C@]23C)CC1 [Compound 87b]
7. C=C1/C(=C\C=C2/CCC[C@]3(C)[C@@H]([C@H](C)/C=C/[C@@H](O)C4(C(=O)CCC)CC4)CC[C@@H]23)C[C@@H](O)C[C@@H]1O

Result:
1. 7
2. 2
3. 6
4. 10
5. 1
6. 3
7. 2
